ASSAY PROCEDURE: Solubility (Test F)
Assay type: physicochemical
APPLIED CONDITIONS: arithmetic mean if run multiple times
PARAMETER: solubility

COc1cc(F)c(O[C@H]2CC[C@@](C)(C(=O)O)CC2)cc1C(=O)N[C@@H]1[C@H]2CC[C@H](C2)[C@@H]1C(=O)NCC(C)(C)C ... > 730 µM
COc1cc(F)c(O[C@H]2CC[C@@](C)(C(=O)O)CC2)cc1C(=O)N[C@@H]1[C@H]2CC[C@H](C2)[C@@H]1C(=O)NCC1CCC1 ... > 1000 µM
CCC1(CNC(=O)[C@H]2[C@@H]3CC[C@@H](C3)[C@H]2NC(=O)c2cc(O[C@H]3CC[C@@](C)(C(=O)O)CC3)c(F)cc2OC)CCC1 ... 810 µM

Every entry's value here was drawn from patent US11667602B2.
